Measured pIC50 by item
Molecular target: Ras farnesyl transferase (Homo sapiens, UniProt P49354+P49356)
Construct: made in house
Experiment: In vitro inhibitory activity for Ras farnesyl transferase, K-Ras substrate
Type: biochemical
Settings: in vitro farnesyl transferase assay, K-Ras; read-out: K-Ras IC50
pIC50: −log10 of the molar value.
Recorded metric: pIC50

>  <Smi>
COCCN(C)C(=O)c1cn(Cc2cncn2Cc2ccc(F)cc2)cc1-c1cccc2ccccc12

>  <Data value>
8.30

$$$$
>  <Smi>
N#Cc1ccc(Cn2cncc2Cn2cc(C(=O)N3CCOCC3)c(-c3cccc4ccccc34)c2)cc1

>  <Data value>
8.22

$$$$
>  <Smi>
COC(=O)[C@H](CC(C)C)NC(=O)c1cn(Cc2cncn2Cc2ccc(C#N)cc2)cc1-c1cccc2ccccc12

>  <Data value>
4.66

$$$$
>  <Smi>
CN1CCN(C(=O)c2cn(Cc3cncn3CCc3ccc(Cl)cc3)cc2-c2cccc3ccccc23)CC1

>  <Data value>
8.52

$$$$
>  <Smi>
Cc1ccc(CCn2cncc2Cn2cc(C(=O)N3CCN(C)CC3)c(-c3cccc4ccccc34)c2)cc1

>  <Data value>
8.40

$$$$
>  <Smi>
CN1CCN(C(=O)c2cn(Cc3cncn3Cc3ccc(Cl)cc3)cc2-c2cccc3ccccc23)CC1

>  <Data value>
8.40

$$$$
>  <Smi>
O=C(c1cn(Cc2cncn2Cc2cccc3ccccc23)cc1-c1cccc2ccccc12)N1CCOCC1

>  <Data value>
8.70

$$$$
>  <Smi>
CN1CCN(C(=O)c2cn(Cc3cncn3CCc3ccccc3Cl)cc2-c2cccc3ccccc23)CC1

>  <Data value>
8.52

$$$$
>  <Smi>
CN1CCN(C(=O)c2cn(Cc3cncn3Cc3ccc(C#N)cc3)cc2-c2cccc3ccccc23)CC1

>  <Data value>
7.05

$$$$
>  <Smi>
N#Cc1ccc(Cn2cncc2Cn2cc(C(=O)c3ccc(Br)cc3)c(-c3cccc4ccccc34)c2)cc1

>  <Data value>
6.92

$$$$
>  <Smi>
CN1CCN(C(=O)c2cn(Cc3cncn3CCc3ccc(O)cc3)cc2-c2cccc3ccccc23)CC1

>  <Data value>
8.70

$$$$
>  <Smi>
COCCN(C)C(=O)c1cn(Cc2cncn2Cc2ccc(Br)cc2)cc1-c1cccc2ccccc12

>  <Data value>
8.70

$$$$
>  <Smi>
COCCN(C)C(=O)c1cn(Cc2cncn2CCc2ccccc2F)cc1-c1cccc2ccccc12

>  <Data value>
9.00

$$$$
>  <Smi>
Cc1ccc(Cn2cncc2Cn2cc(C(=O)N3CCN(C)CC3)c(-c3cccc4ccccc34)c2)cc1

>  <Data value>
8.62

$$$$
